B1: Hairpin Ribozyme (parent)
chain: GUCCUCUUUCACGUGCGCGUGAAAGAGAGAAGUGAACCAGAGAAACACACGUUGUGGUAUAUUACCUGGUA

variants of: B1; assay: self-cleavage, relative activity (ratio to wild type); higher = more cleavage; co-transcriptional
Classify as follows. Reported self-cleavage greater than or equal to 0.2: yes. Reported self-cleavage below: no.

See these solved cases before continuing.
   mutation_string  group_label
0         U5C A49G          yes
1        C10U G15C          yes
2        G40U C65U           no
3        G19A A36U          yes
4        A11G G13A          yes

Does the variant G13A U58A have recorded self-cleavage that is 0.2 or more?
yes

// inclusive: self-cleavage at least 0.2? input: U63C G68C
no

Evaluate A49C U62G : self-cleavage at minimum 0.2?
yes

Has U9C G29C a recorded self-cleavage greater than or equal to 0.2?
no

Entry U14G A39C : is its self-cleavage no less than 0.2?
yes

I'd appreciate it if you could say whether A41G A49U has self-cleavage at least equal to 0.2.
no

Could you tell me if the measured self-cleavage of C38U G54U reaches 0.2 or more?
yes

Please check the record G1U C6G and state if its self-cleavage is at or above 0.2.
yes

Hi team, for A31C C65U , is the recorded self-cleavage at or above 0.2?
no

Check the entry C18U G51A : does self-cleavage equal or exceed 0.2?
yes

Record U14A G54U ; criterion: self-cleavage no lower than 0.2. Met?
yes

In plain terms: is recorded self-cleavage at least 0.2 for A44U A59C ?
no

Identify whether the reported self-cleavage of the following variant is 0.2 or greater: U8G G21C
yes
